Data credit: paper PMC12473246

Target: ECATS2 (DM-20) (Bacillus sp. PS3, UniProt A0A0M5MQR7, R103A/R115A)
Construct: gene uncC; double-mutant epsilon subunit between mseCFP and mVenus, 20 nm alpha-helical ER/K linker to PDGFR transmembrane domain
Sequence (A0A0M5MQR7 1-133, stated change not applied): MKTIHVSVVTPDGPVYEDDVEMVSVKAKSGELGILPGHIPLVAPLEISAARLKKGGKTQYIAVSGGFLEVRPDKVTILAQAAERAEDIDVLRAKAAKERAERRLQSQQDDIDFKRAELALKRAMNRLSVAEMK
Experiment: FRET ratio live-cell imaging dose response
Type: cell-based
Conditions: read-out: apparent ADP dissociation constant
parameterMeasured: Kd

Noted for Nc1ncnc2c1ncn2[C@@H]1O[C@H](COP(=O)(O)OP(=O)(O)O)[C@@H](O)[C@H]1O [ADP] : its Kd reads ~100 µM

###

Target: ECATS2 (DM-20) (Bacillus sp. PS3, UniProt A0A0M5MQR7, R103A/R115A)
Construct: gene uncC; double-mutant epsilon subunit between mseCFP and mVenus, 20 nm alpha-helical ER/K linker to PDGFR transmembrane domain
Assay: FRET ratio live-cell imaging dose response
Type: cell-based
Settings: read-out: apparent dissociation constant
parameterMeasured: pKd
On this scale, pKd is minus log10 of a concentration expressed in M (mol/L).

Noted for `Nc1ncnc2c1ncn2[C@@H]1O[C@H](COP(=O)(O)OP(=O)(O)OP(=O)(O)O)[C@@H](O)[C@H]1O` : its pKd reads 5.43

###

parameterMeasured: Kd

Sample Nc1ncnc2c1ncn2[C@@H]1O[C@H](COP(=O)(O)OP(=O)(O)OP(=O)(O)O)[C@@H](O)[C@H]1O [ATP] , system: ecATeam3.10 (Bacillus sp. PS3). Its Kd is 12 µM
